Tested on: Italian ryegrass
PROTOCOL_NOTES: Test A postemergence
Format: in vivo, Lolium multiflorum
EXPERIMENTAL_CONTEXT: 500 g ai/ha, 0 to 100 scale where 0 is no effect and 100 is complete control

{"STRUCTURE_SMILES": "N#Cc1cccc(Oc2ncc(Br)cn2)c1-n1cc(I)cn1", "Plant response rating, Ryegrass, Italian": 90}
{"STRUCTURE_SMILES": "N#Cc1cccc(Oc2ncc(Cl)cn2)c1-n1cnc(C(F)(F)F)c1", "Plant response rating, Ryegrass, Italian": 70}
{"STRUCTURE_SMILES": "Cc1cnc(Oc2cccc(C#N)c2-n2cc(I)cn2)nc1", "Plant response rating, Ryegrass, Italian": 90}
{"STRUCTURE_SMILES": "CCOc1cn(-c2c(Br)cccc2Oc2ncc(Cl)cn2)nn1", "Plant response rating, Ryegrass, Italian": 80}
{"STRUCTURE_SMILES": "COc1cnn(-c2c(C#N)cccc2Oc2ncc(Cl)cn2)c1", "Plant response rating, Ryegrass, Italian": 80}
{"STRUCTURE_SMILES": "CCCc1cnc(Oc2cccc(C#N)c2-n2cc(Br)cn2)nc1", "Plant response rating, Ryegrass, Italian": 0}
{"STRUCTURE_SMILES": "N#Cc1cnn(-c2c(C#N)cccc2Oc2ncc(I)cn2)c1", "Plant response rating, Ryegrass, Italian": 0}

* * *

Test system: velvetleaf
PROTOCOL_NOTES: Test A postemergence
Format: in vivo, Abutilon theophrasti
EXPERIMENTAL_CONTEXT: 125 g ai/ha, 0 to 100 scale where 0 is no effect and 100 is complete control
TEST_READOUT: Velvetleaf plant response rating

{"STRUCTURE_SMILES": "FC(F)c1cccc(Oc2ncc(Cl)cn2)c1-n1cc(Br)cn1", "MEASUREMENT_TARGET": "velvetleaf", "TEST_READOUT": "Velvetleaf plant response rating", "NUMERIC_RESULT": 100}
{"STRUCTURE_SMILES": "CON=Cc1cccc(Oc2ncc(Cl)cn2)c1-n1cc(Br)cn1", "MEASUREMENT_TARGET": "velvetleaf", "TEST_READOUT": "Velvetleaf plant response rating", "NUMERIC_RESULT": 80}
{"STRUCTURE_SMILES": "O=Cc1cccc(Oc2ncc(Cl)cn2)c1-n1cc(C(F)(F)F)cn1", "MEASUREMENT_TARGET": "velvetleaf", "TEST_READOUT": "Velvetleaf plant response rating", "NUMERIC_RESULT": 40}
{"STRUCTURE_SMILES": "FC(F)(F)c1cnn(-c2c(Cl)cccc2Oc2ncc(Br)cn2)c1", "MEASUREMENT_TARGET": "velvetleaf", "TEST_READOUT": "Velvetleaf plant response rating", "NUMERIC_RESULT": 90}
{"STRUCTURE_SMILES": "COc1ccc(Br)c(-n2cc(Br)cn2)c1Oc1ncc(Cl)cn1", "MEASUREMENT_TARGET": "velvetleaf", "TEST_READOUT": "Velvetleaf plant response rating", "NUMERIC_RESULT": 30}
{"STRUCTURE_SMILES": "Clc1cnc(Oc2cccc(Cl)c2-n2cc(Br)cn2)nc1", "MEASUREMENT_TARGET": "velvetleaf", "TEST_READOUT": "Velvetleaf plant response rating", "NUMERIC_RESULT": 100}
{"STRUCTURE_SMILES": "Clc1cnc(Oc2cccc(-c3ccccc3)c2-n2cc(Br)cn2)nc1", "MEASUREMENT_TARGET": "velvetleaf", "TEST_READOUT": "Velvetleaf plant response rating", "NUMERIC_RESULT": 50}
{"STRUCTURE_SMILES": "N#Cc1cnc(Oc2cccc(C=O)c2-n2cc(Br)cn2)nc1", "MEASUREMENT_TARGET": "velvetleaf", "TEST_READOUT": "Velvetleaf plant response rating", "NUMERIC_RESULT": 0}
{"STRUCTURE_SMILES": "FC(F)c1cccc(Oc2ncc(I)cn2)c1-n1cc(Br)cn1", "MEASUREMENT_TARGET": "velvetleaf", "TEST_READOUT": "Velvetleaf plant response rating", "NUMERIC_RESULT": 60}
